Target: T1, Pext-01 (huANGTPL7-FLAG multimer) (human, UniProt O43827 27-346)
T1 construct: also called PExt-1; human wild type ANGPTL7 multimer; not shown: FLAG tag
T1 sequence: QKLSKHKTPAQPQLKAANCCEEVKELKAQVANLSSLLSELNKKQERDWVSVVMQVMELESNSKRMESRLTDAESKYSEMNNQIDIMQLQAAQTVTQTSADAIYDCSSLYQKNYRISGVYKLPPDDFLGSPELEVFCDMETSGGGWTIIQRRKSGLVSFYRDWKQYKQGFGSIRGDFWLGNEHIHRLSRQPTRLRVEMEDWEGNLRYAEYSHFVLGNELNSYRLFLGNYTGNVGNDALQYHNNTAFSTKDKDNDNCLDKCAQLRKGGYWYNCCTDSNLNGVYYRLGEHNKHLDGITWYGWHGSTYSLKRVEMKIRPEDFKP
Test: BLI Octet HTX; IgG on AHC sensor; Pext-01 at 100 nM; 1:1 fit; apparent KD
# Response per record follows
observable: Response (nm)

{"binder": "ATX-P-424 (antibody, human IgG1, kappa, N297A, V domains shown, Full chains (VH + hIgG1-Agly-Fc)) VH: EVQLVESGGGLVKPGGSLRLSCAASGFTFSSYSMNWVRQAPGKGLEWVSSITSSSYIFYADSLKGRFTISRDNAKNSLFLQMNSLRAEDTAVYYCARDSNWGEAFDIWGQGTMVTVSS VL: DIQMTQSPSSLSASVGDRVTITCRASQGIRNDLGWYQQKPGKAPKRLIYAASSLPSGVPSRFSGSGSGTEFTLTISSLQPEDFAIYYCLQHNSYPWTFGQGTKVEIKR", "observable": "Response", "recordedResult": 0.76}
{"binder": "ATX-P-440 (antibody, human IgG1, kappa, N297A, V domains shown, Full chains (VH + hIgG1-Agly-Fc)) VH: EVQLVESGGGVVRPGGSLRLSCAASGFTFDDYGMSWVRQAPGKGLEWVSTINWNGGNTGYADSVKGRFTISRDNAKNSLYLQMNSLRAEDTALYYCARDEGAAGLGYYFDYWGQGTLVTVSS VL: DIQMTQSPSTLSASVGDRVTITCRASQSISSWLAWYQQKPGKAPKLLIYATSSLQSGVPSRFSGSGSGTDFTLTISSLQPEDFATYYCQQSYSTPITFGQGTRLEIKR", "observable": "Response", "recordedResult": 0.61}
{"binder": "ATX-P-438 (antibody, human IgG1, kappa, N297A, V domains shown, Full chains (VH + hIgG1-Agly-Fc)) VH: QVQLVESGGGVVQPGRSLRLSCAASGFTFSSYGMHWVRQAPGKGLEWVAIISYDGNNKYYADSVKGRFTISRDNSKNTLYLQMNSLRDEDTAVYYCAKERGYSSSSGYYYYYMDVWGKGTTVTVSS VL: EIVLTQSPGTLSLSPGERATLSCRASQSVSRSYLAWYQQKPGQAPRLLIIGASTRATGIPDRFSGSGSGTDFTLTISRLEPEDFAVYYCQQGQVIPPTFGQGTKVEIKR", "observable": "Response", "recordedResult": 0.6}
{"binder": "ATX-P-433 (antibody, IgG1, V domains shown, Full chains (VH + hIgG1-Agly-Fc)) VH: EVQLVESGGGLVQPGRSLRLSCAASGFTFDDFAMHWVRQGPGKGLEWVSGIGWNSGSIGYADSVKGRFTISRDNAKNSLYLQMNSLRAEDTALYYCAKAPDYGDYYFDYWGQGTLVTVSS VL: DIQMTQSPSSLSASVGDRVTITCRASQSISIYLNWYQQKPGTAPKLLIYAASSLQSGVPSRFSGSGSGTDFTLTISSLQPEDFAAYYCQQSYTTPLTFGGGTKVEIKR", "observable": "Response", "recordedResult": 0.72}
{"binder": "ATX-P-449 (antibody, human IgG1, kappa, N297A, V domains shown, Full chains (VH + hIgG1-Agly-Fc)) VH: QVQLVESGGGVVQPGRSLRLSCAASGFAFSSYGMHWVRQAPGKGLEWVAVISYYGSNKYYADSVKGRFTISRDNSKNTLYLQMNSLRAEDTAVYHCARGITMDVWGKGTTVTVSS VL: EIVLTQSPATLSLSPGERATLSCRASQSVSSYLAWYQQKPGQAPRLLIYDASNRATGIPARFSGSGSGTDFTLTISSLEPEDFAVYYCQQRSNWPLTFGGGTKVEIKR", "observable": "Response", "recordedResult": 0.65}
{"binder": "ATX-P-425 (antibody, human IgG1, kappa, N297A, V domains shown, Full chains (VH + hIgG1-Agly-Fc)) VH: EVQLVESGGGLVKPGGSLRLSCAASGFTFSTYSMNWVRQAPGKGLEWVSSITSSSSYMFYADSVMGRFTISRDNAKNSLYLQMNSLRAEDTADYYCARDSNWGEAFDIWGQGTMVTVSS VL: DIQMTQSPSSLSASVGDRVTITCRASQGIRIDLGWFQQKPGKAPKRLIYAASSLPSGVPSRFSGSGSGTEFTLTISSLQPEDFATYYCLQHNSYPWTFGQGTKVEIKR", "observable": "Response", "recordedResult": 0.83}
{"binder": "ATX-P-435 (antibody, human IgG1, kappa, N297A, V domains shown, Full chains (VH + hIgG1-Agly-Fc)) VH: QLQLQESGPGLVKPSETLSLTCTVSGGSISSSSSYWGWIRQPPGKGLEWIGSIYYSGSTYSNPSLKSRVTISVDTSKNQFSLKLSSVTAADTAVYYCARQYISGTEYFQYWGQGTLVTVSS VL: EIVLTQSPATLSLSPGERATLSCRASQSVSNYLAWYQQKPGQAPRLLIYDASNRATGIPARFSGSGSGTDFTLTISSLEPEDFAVYYCQQRSNWPSFGQGTRLEIKR", "observable": "Response", "recordedResult": 0.45}
